Test: Antagonist activity at human CRFR1 expressed in HEK293 cells assessed as inhibition of sauvagine-induced cAMP accumulation by measuring sauvagine EC50 at 1 uM after 30 mins (Rvb = 0.203 nM)
readout_kind: EC50 (nM)
Entry rule: numbers only, all in nM.

Give the value of EC50 reported for the following: CCCCN(CC)c1nc(C)nc2c1sc(=N)n2-c1c(C)cc(C)cc1C
1.1
